Each record here notes measured pIC50.
# target: recombinant human CYP11B2 (Homo sapiens, UniProt P19099)
# Construct: enzyme-enriched microsomal fraction of the lysate
# assay summary: CYP11B2 enzyme assay with enzyme enriched microsomes, aldosterone measured by LC-MS
# details: microsomes from V79-4 cells; 11-deoxycorticosterone at Km; read-out: hCYP11B2 IC50
pIC50: −log10 of the molar value.

CS(=O)(=O)Nc1ccc2c(c1)ncn2-c1nc2cc(F)c(F)cc2n1C1CC1 | 6.00 to 7.00
COc1ccc2c(c1)ncn2-c1nc2ccc(F)cc2n1C1CC1 | 7.00 to 9.00
O=C(O)c1ccc2c(c1)ncn2-c1nc2cc(F)c(F)cc2n1C1CC1 | 5.00 to 6.00
N#Cc1ccc2nc(-n3cnc4ccc(OC(F)F)cc43)n(C3CC3)c2c1 | 7.00 to 9.00

Documented pIC50 of `Fc1cc2ncn(-c3nc4cc(F)c(F)cc4n3C3CC3)c2cc1F` : 7.00 to 9.00

Documented pIC50 of `CCc1ccc2ncn(-c3nc4ccc(F)cc4n3C3CC3)c2c1` : 7.00 to 9.00

Documented pIC50 of `N#Cc1ccc2ncn(-c3nc4cc(F)c(F)cc4n3C3CC3)c2c1` : 6.00 to 7.00

Documented pIC50 of `Fc1ccc2nc(-n3cnc4ccccc43)n(C3CC3)c2c1` : 7.00 to 9.00

Documented pIC50 of `Fc1cc2nc(-n3cnc4ccncc43)n(C3CC3)c2cc1F` : 7.00 to 9.00

---

# target: recombinant human CYP11B2 (Homo sapiens, UniProt P19099)
# Construct: enzyme-enriched microsomal fraction of the lysate
# Sequence (P19099 25-503): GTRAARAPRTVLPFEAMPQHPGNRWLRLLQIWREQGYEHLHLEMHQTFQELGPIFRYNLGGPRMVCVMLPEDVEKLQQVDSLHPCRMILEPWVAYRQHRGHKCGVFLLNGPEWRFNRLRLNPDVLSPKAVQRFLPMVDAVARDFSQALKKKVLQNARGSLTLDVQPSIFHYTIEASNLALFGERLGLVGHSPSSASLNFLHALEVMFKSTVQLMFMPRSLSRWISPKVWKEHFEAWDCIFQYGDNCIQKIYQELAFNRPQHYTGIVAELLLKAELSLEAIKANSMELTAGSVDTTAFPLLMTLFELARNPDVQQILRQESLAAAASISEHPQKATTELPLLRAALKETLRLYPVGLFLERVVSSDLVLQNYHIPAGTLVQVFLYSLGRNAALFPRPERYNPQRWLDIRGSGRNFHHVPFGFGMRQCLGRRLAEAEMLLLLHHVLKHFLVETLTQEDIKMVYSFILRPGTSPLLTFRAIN
# assay summary: CYP11B2 enzyme assay with enzyme enriched microsomes, aldosterone measured by LC-MS
# details: microsomes from V79-4 cells; 11-deoxycorticosterone at Km; read-out: hCYP11B2 IC50
parameter measured: IC50

Item `Fc1cc2nc(-n3cnc4ncccc43)n(C3CC3)c2cc1F` was tested on recombinant human CYP11B2 (Homo sapiens, UniProt P19099); the reported IC50 is 1000 to 10000 nM

Item `Fc1ccc2nc(-n3cnc4c(F)c(F)ccc43)n(C3CC3)c2c1` was tested on recombinant human CYP11B2 (Homo sapiens, UniProt P19099); the reported IC50 is 1000 to 10000 nM

---

Each record here notes measured IC50.
# target: recombinant human CYP11B1 (Homo sapiens, UniProt P15538)
# Construct: enzyme-enriched microsomal fraction of the lysate
# Sequence (P15538 25-503): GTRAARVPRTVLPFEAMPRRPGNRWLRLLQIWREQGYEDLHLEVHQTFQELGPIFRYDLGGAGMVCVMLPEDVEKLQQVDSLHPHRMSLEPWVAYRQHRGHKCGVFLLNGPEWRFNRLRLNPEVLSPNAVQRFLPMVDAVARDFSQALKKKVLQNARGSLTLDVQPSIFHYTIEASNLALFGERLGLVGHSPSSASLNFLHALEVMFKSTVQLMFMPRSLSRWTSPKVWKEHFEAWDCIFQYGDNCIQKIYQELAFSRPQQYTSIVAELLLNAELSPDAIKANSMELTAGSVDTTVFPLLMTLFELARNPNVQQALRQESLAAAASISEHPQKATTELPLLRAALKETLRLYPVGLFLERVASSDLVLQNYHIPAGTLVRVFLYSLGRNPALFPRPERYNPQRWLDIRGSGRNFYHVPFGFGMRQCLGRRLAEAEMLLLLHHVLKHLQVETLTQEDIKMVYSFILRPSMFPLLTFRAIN
# assay summary: CYP11B1 enzyme assay with enzyme enriched microsomes, cortisol measured by LC-MS
# details: microsomes from V79-4 cells; 11-deoxycortisol at Km; read-out: hCYP11B1 IC50

CCc1ccc2c(c1)ncn2-c1nc2ccc(F)cc2n1C1CC1 [Example 10] | 0.1 to 1 µM
Fc1cc2nc(-n3cnc4cnc(C(F)F)cc43)n(C3CC3)c2cc1F [Example 40] | > 10 µM
N#Cc1ccc2c(c1)ncn2-c1nc2cc(F)c(F)cc2n1C1CC1 [Example 23] | 1 to 10 µM
Fc1ccc2nc(-n3cnc4ccc(OC(F)(F)F)cc43)n(C3CC3)c2c1 [Example 28] | > 10 µM
Fc1ccc2nc(-n3cnc4ccccc43)n(C3CC3)c2c1F [Example 2] | 1 to 10 µM

Documented IC50 of Fc1cc2ncn(-c3nc4ccc(Cl)cc4n3C3CC3)c2cc1F [Example 26] : 1 to 10 µM

Documented IC50 of Fc1ccc2nc(-n3cnc4c(F)c(F)ccc43)n(C3CC3)c2c1 [Example 3] : > 10 µM

Documented IC50 of COc1ccc2ncn(-c3nc4ccc(F)cc4n3C3CC3)c2c1 [Example 13] : 0.1 to 1 µM

Documented IC50 of Fc1ccc2ncn(-c3nc4ccc(F)cc4n3C3CC3)c2c1 [Example 19] : 1 to 10 µM

Documented IC50 of CS(=O)(=O)Nc1ccc2c(c1)ncn2-c1nc2ccc(F)c(F)c2n1C1CC1 [Example 31] : > 10 µM

Documented IC50 of Fc1ccc2c(c1)ncn2-c1nc2ccc(F)cc2n1C1CC1 [Example 18] : 0.1 to 1 µM
